molecular target: RPS6KA1 KD2 (human) (UniProt Q15418); assay: KINOMEscan competition binding; details: compound 10.0 µM
Sequence (Q15418 whole entry, looked up): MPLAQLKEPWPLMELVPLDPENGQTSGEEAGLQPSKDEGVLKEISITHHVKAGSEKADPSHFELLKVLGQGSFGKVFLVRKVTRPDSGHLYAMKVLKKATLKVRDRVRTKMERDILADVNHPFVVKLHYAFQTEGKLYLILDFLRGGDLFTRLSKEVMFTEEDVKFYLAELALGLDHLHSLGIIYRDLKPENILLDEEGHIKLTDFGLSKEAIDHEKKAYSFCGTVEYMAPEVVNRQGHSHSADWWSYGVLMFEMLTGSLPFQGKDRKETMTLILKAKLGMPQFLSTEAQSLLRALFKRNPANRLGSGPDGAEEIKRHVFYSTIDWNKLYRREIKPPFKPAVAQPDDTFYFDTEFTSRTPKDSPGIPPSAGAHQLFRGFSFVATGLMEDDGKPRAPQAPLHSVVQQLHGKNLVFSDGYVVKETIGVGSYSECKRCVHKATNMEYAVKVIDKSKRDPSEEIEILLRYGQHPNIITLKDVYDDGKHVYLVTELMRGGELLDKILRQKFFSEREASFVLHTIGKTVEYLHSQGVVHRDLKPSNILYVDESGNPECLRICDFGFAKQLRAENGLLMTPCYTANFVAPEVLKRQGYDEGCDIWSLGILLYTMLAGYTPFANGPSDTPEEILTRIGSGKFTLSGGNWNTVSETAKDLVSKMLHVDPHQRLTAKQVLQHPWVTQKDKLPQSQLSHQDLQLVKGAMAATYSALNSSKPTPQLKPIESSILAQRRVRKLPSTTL
recorded metric: kinase still bound, per cent of control (%)

given_smiles=Cc1n[nH]c2ccc(-c3cncc(OC[C@@H](N)Cc4c[nH]c5ccccc45)c3)cc12 recorded_metric="kinase still bound, per cent of control" u=% experimental_value=100
given_smiles=COCC(=O)NC/C=C/c1ccc2ncnc(Nc3ccc(Oc4ccc(C)nc4)c(C)c3)c2c1 recorded_metric="kinase still bound, per cent of control" u=% experimental_value=73
given_smiles=CCN1CCN(C(=O)Cc2ccc(Nc3ncc(F)c(Nc4ccc(C(=O)Nc5ccccc5Cl)cc4)n3)cc2)CC1 recorded_metric="kinase still bound, per cent of control" u=% experimental_value=45
given_smiles=CCN(CC)CCCCNc1ncc2cc(-c3cc(OC)cc(OC)c3)c(NC(=O)NC(C)(C)C)nc2n1 recorded_metric="kinase still bound, per cent of control" u=% experimental_value=100
given_smiles=C=CC(=O)Nc1cc(-n2c(=O)ccc3cnc4ccc(-c5cn[nH]c5)cc4c32)ccc1C recorded_metric="kinase still bound, per cent of control" u=% experimental_value=94
given_smiles=NC(=O)Nc1cc(-c2cccc(F)c2)sc1C(=O)N[C@@H]1CCCNC1 recorded_metric="kinase still bound, per cent of control" u=% experimental_value=1.4
given_smiles=O=C(Nc1cccc(Nc2ncc(Br)c(NCCc3cnc[nH]3)n2)c1)N1CCCC1 recorded_metric="kinase still bound, per cent of control" u=% experimental_value=13
given_smiles=C[C@@H](Oc1cc(-c2cnn(C3CCNCC3)c2)cnc1N)c1c(Cl)ccc(F)c1Cl recorded_metric="kinase still bound, per cent of control" u=% experimental_value=54
given_smiles=C=CC(=O)Nc1ccc(CN(C(=O)Nc2c(Cl)c(OC)cc(OC)c2Cl)c2cc(Nc3ccc(N4CCN(C)CC4)cc3)ncn2)cc1 recorded_metric="kinase still bound, per cent of control" u=% experimental_value=100
given_smiles=COc1ccc(N(C(=O)Oc2c(C)cccc2C)c2ccnc(Nc3ccc(N4CCN(C)CC4)cc3)n2)c(OC)c1 recorded_metric="kinase still bound, per cent of control" u=% experimental_value=65
given_smiles=CNC(=O)c1cc(Oc2ccc(NC(=O)Nc3ccc(Cl)c(C(F)(F)F)c3)cc2)ccn1 recorded_metric="kinase still bound, per cent of control" u=% experimental_value=100
given_smiles=O=c1cc(N2CCOCC2)oc2c(-c3cccc4c3sc3ccccc34)cccc12 recorded_metric="kinase still bound, per cent of control" u=% experimental_value=75
given_smiles=CN(C)C/C=C/C(=O)Nc1ccc(C(=O)Nc2cccc(Nc3nccc(-c4cccnc4)n3)c2)cc1 recorded_metric="kinase still bound, per cent of control" u=% experimental_value=91
given_smiles=CCN(CC)CCCCNc1ncc2c(n1)N(C)C(=O)N(c1c(Cl)c(OC)cc(OC)c1Cl)C2 recorded_metric="kinase still bound, per cent of control" u=% experimental_value=100
given_smiles=COc1cc(N2CCN(C)CC2)ccc1Nc1ncc2c(n1)N(C)c1ccccc1C(=O)N2C recorded_metric="kinase still bound, per cent of control" u=% experimental_value=18
given_smiles=O=C1NC(=O)/C(=C/c2ccc3nccc(-c4ccncc4)c3c2)S1 recorded_metric="kinase still bound, per cent of control" u=% experimental_value=19
given_smiles=N#CCNC(=O)c1ccc(-c2ccnc(Nc3ccc(N4CCOCC4)cc3)n2)cc1 recorded_metric="kinase still bound, per cent of control" u=% experimental_value=80
